FYI, the data here is from ChEMBL document CHEMBL5346948.

- Tested on: Tyrosine-protein kinase JAK1 (Homo sapiens, UniProt P23458)
- Sequence (P23458 whole entry): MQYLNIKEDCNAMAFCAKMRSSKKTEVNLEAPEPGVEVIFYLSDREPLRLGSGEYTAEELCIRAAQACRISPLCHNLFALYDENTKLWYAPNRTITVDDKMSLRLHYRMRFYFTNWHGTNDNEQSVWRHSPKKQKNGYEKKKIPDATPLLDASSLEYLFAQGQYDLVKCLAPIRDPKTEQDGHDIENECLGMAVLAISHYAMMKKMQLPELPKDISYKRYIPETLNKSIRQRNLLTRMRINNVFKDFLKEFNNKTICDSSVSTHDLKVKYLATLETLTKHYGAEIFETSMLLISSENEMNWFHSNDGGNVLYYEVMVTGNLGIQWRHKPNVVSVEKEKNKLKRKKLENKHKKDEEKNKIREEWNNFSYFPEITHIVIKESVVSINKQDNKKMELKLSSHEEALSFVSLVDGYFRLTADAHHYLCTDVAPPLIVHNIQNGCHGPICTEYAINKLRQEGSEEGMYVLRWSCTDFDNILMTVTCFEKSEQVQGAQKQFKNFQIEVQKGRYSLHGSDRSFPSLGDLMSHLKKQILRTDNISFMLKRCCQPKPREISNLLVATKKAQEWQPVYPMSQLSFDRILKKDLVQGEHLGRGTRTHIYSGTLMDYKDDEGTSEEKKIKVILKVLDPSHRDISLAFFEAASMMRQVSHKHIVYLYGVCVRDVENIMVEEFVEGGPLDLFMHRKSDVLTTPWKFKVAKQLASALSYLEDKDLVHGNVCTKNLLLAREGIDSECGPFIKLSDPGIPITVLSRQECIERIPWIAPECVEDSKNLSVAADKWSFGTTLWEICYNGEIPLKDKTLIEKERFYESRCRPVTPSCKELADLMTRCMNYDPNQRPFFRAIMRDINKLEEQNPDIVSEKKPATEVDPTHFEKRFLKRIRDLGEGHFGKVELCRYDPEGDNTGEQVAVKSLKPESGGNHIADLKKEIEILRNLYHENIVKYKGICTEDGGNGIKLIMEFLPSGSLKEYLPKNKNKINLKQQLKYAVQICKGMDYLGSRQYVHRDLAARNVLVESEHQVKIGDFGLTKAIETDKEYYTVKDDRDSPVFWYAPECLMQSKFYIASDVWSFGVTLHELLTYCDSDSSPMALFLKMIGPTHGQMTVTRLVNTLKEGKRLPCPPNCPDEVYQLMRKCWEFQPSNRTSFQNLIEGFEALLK
- Test name: Inhibition of JAK1 (unknown origin)
Measurement label: IC50

Input line: Endpoint output: IC50 of CS(=O)(=O)N1CC[C@H](C#CC(=O)N2CCC[C@@H](c3ccc(Cl)c(Cl)c3)C2)C1 . Value?
Output line: 32 nM
